- TARGET_UNDER_TEST: BRM (Homo sapiens)
- Construct: In-Cell Western Screen of BRM Degradation in SW1573 Cells; endogenous in cells; host or cells: SW1573 cells
- Sequence (P51531 whole entry): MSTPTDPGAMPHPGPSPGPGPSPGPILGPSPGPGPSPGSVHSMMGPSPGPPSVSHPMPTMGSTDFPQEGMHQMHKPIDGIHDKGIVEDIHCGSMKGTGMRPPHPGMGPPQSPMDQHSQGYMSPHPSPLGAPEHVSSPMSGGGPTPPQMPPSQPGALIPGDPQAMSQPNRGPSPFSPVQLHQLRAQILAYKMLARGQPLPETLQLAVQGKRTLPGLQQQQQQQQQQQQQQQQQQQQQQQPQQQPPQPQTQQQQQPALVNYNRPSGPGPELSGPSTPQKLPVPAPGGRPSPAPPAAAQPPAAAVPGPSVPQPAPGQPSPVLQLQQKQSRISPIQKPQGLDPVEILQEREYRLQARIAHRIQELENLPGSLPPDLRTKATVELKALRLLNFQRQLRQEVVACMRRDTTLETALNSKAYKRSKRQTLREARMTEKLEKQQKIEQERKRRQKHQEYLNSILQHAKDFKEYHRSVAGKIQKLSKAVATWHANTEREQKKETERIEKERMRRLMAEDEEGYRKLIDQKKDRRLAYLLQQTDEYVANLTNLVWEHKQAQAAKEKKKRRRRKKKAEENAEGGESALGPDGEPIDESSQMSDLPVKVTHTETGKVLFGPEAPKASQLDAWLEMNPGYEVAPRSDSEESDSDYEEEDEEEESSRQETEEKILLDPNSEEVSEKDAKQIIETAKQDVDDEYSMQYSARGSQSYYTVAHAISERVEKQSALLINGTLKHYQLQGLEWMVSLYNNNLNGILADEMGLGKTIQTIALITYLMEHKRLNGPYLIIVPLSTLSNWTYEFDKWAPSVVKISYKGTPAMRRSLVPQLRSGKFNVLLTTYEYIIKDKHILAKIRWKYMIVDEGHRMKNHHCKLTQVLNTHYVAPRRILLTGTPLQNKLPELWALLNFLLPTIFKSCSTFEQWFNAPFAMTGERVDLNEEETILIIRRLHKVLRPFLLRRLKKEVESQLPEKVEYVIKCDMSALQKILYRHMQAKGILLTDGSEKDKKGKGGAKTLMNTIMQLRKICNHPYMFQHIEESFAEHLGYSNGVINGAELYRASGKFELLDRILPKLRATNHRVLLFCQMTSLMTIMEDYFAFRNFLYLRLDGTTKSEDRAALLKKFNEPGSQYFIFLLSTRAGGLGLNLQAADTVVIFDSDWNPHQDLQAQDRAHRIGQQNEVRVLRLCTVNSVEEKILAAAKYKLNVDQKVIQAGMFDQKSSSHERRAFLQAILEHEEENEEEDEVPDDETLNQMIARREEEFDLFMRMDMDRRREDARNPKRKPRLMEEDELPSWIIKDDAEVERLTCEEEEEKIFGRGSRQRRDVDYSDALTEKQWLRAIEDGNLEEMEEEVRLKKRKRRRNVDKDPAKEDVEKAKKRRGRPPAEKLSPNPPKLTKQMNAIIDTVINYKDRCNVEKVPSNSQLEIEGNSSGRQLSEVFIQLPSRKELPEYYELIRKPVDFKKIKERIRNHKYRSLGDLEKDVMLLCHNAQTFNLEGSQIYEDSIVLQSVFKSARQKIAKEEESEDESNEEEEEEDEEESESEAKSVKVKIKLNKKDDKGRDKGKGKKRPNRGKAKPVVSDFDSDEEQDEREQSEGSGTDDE
- TEST_DESCRIPTION: Western blot / In-Cell Western screen of BRM degradation in SW1573 cells
- Assay type: cell-based
- EXPERIMENTAL_SETUP: overnight (18-20 hours) treatment
MEASURED_ENDPOINT: DC50

1. Cc1cnn(C)c1-c1ccc([C@H](C)NC(=O)[C@@H]2C[C@@H](O)CN2C(=O)[C@@H](c2cc(N3CCC(CN4CCC(O[C@H]5C[C@H](C#Cc6cn7cc(-c8ccccc8O)nc7nc6N)C5)CC4)CC3)no2)C(C)C)cc1 :: 2.5 to 10 nM
2. Cc1ncsc1-c1ccc([C@H](C)NC(=O)[C@@H]2C[C@@H](O)CN2C(=O)[C@@H](c2cc(N3CCC(CN4CCC(O[C@H]5C[C@H](C#Cc6cn7cc(-c8ccccc8O)nc7nc6N)C5)CC4)CC3)no2)C(C)C)cc1 :: < 2.5 nM
3. Cc1ncsc1-c1ccc([C@H](C)NC(=O)[C@@H]2C[C@@H](O)CN2C(=O)[C@@H](c2cc(OCCN3CCN(CCOc4cc(N5CCN(c6cc(-c7ccccc7O)nnc6N)CC56COC6)ccn4)CC3)no2)C(C)C)cn1 :: 2.5 to 10 nM
